The measured values listed here are drawn from ChEMBL document CHEMBL1154099.

- Tested on: Staphylococcus aureus
- assay.details: Antibacterial activity against Staphylococcus aureus ATCC 25923 after 18 to 20 hrs by twofold tube dilution method
- Type: functional
Exercise: for every item that follows, state its recorded MIC.
One number for each entry, in µg/mL.

Here are 10 compounds together with their reported answers.
INSERT INTO assay_data (compound, unit_string, assay_value) VALUES
  ('O=[N+]([O-])c1ccc2[nH]c(/C=C/c3ccc(Cl)cc3Cl)nc2c1', 'µg/mL', 31.2),
  ('COc1ccc(/C=C/c2nc3cc(Br)ccc3[nH]2)cc1OC', 'µg/mL', 2),
  ('Cc1ccc(/C=C/c2nc3cc(Br)ccc3[nH]2)cc1', 'µg/mL', 31.2),
  ('Oc1cccc(/C=C/c2nc3cc(Br)ccc3[nH]2)c1', 'µg/mL', 1),
  ('O=[N+]([O-])c1ccc2[nH]c(/C=C/c3ccccc3)nc2c1', 'µg/mL', 8),
  ('O=[N+]([O-])c1ccc2[nH]c(/C=C/c3cccc(O)c3)nc2c1', 'µg/mL', 4),
  ('O=[N+]([O-])c1ccc2[nH]c(/C=C/c3ccc4c(c3)OCO4)nc2c1', 'µg/mL', 31.2),
  ('Brc1ccc2[nH]c(/C=C/c3ccccc3)nc2c1', 'µg/mL', 2),
  ('Brc1ccc2[nH]c(/C=C/c3ccc4c(c3)OCO4)nc2c1', 'µg/mL', 8),
  ('O=C(O)c1cn(C2CC2)c2cc(N3CCNCC3)c(F)cc2c1=O [CIPROFLOXACIN]', 'µg/mL', 0.78);

// for each compound in input: emit MIC
1. Cc1ccc(/C=C/c2nc3cc([N+](=O)[O-])ccc3[nH]2)cc1
2. Clc1ccc(/C=C/c2nc3cc(Br)ccc3[nH]2)c(Cl)c1
3. COc1ccc(/C=C/c2nc3cc([N+](=O)[O-])ccc3[nH]2)cc1OC

Reply text:
4
16.1
31.2
